Hey, just so you know, these numbers are from patent US20250129067A1.

tested on: Oligodendrocyte progenitor cells (OPCs); experiment: In vitro OPC differentiation assay, GPR17 expression (immunocytochemistry); conditions: 3 μM (10× concentration, final 0.3 μM); 72 hours; fold change over vehicle
measurement-type: GPR17 Fold Induction (Over Vehicle; 3 μM)
Format: numeric value only, no unit, no commentary.

Q: Item: Cc1c(-c2ccc3c(N4CCN(C(=O)OC(C)(C)C)CC4)cnn3c2)cnn1C [Compound 221] Test system: Oligodendrocyte progenitor cells (OPCs) Read-out: GPR17 Fold Induction (Over Vehicle; 3 μM) Value: ?
A: 6.61

---

system: Oligodendrocyte progenitor cells (OPCs); assay: In vitro OPC differentiation assay, GPR17 expression (immunocytochemistry); conditions: 3 μM (10× concentration, final 0.3 μM); 72 hours; fold change over vehicle
Quick reference for GPR17 Fold Induction (Over Vehicle; 3 μM) among some molecules
Format: numeric value only, no unit, no commentary.

Observe how each entry below is paired with its result.
- molecule: "Cn1cc(-c2ccc3c(N4CCN(C(=O)OC5CC(F)(F)C5)CC4)cnn3c2)cn1"
  recorded-measurement: 4.20
- molecule: "Cn1cc(-c2ccc3c(N4CCN(c5ncc(C(F)(F)c6ccc(F)cc6)cn5)CC4)cnn3c2)cn1"
  recorded-measurement: 2.61

Q: Item: Cn1cc(-c2ccc3c(N4CCN(c5ncc(Cc6cccs6)cn5)CC4)cnn3c2)cn1 Test system: Oligodendrocyte progenitor cells (OPCs) Read-out: GPR17 Fold Induction (Over Vehicle; 3 μM) Value: ?
A: 5.98

Q: Item: CC(C)(C)OC(=O)N1CCN(c2cnn3cc(-c4cccnc4)ccc23)CC1 Test system: Oligodendrocyte progenitor cells (OPCs) Read-out: GPR17 Fold Induction (Over Vehicle; 3 μM) Value: ?
A: 1.69

Q: Item: Cn1cc(-c2ccc3c(N4CCN(S(=O)(=O)NCc5ccc(Cl)cc5)CC4)cnn3c2)cn1 Test system: Oligodendrocyte progenitor cells (OPCs) Read-out: GPR17 Fold Induction (Over Vehicle; 3 μM) Value: ?
A: 9.78

Q: Item: Cn1cc(-c2ccc3c(N4CCN(Cc5csc(Cl)c5)CC4)cnn3c2)cn1 Test system: Oligodendrocyte progenitor cells (OPCs) Read-out: GPR17 Fold Induction (Over Vehicle; 3 μM) Value: ?
A: 2.20

Q: Item: CN(Cc1ccccc1)C(=O)C1CCN(c2cnn3cc(-c4cnn(C)c4)ccc23)CC1 Test system: Oligodendrocyte progenitor cells (OPCs) Read-out: GPR17 Fold Induction (Over Vehicle; 3 μM) Value: ?
A: 2.23

Q: Item: Cn1cc(-c2ccc3c(N4CCN(c5ncc(C(C)(N)c6ccc(F)cc6)cn5)CC4)cnn3c2)cn1 (stereo not shown) Test system: Oligodendrocyte progenitor cells (OPCs) Read-out: GPR17 Fold Induction (Over Vehicle; 3 μM) Value: ?
A: 7.17

Q: Item: COc1ccc(-c2ccc3c(N4CCN(C(=O)OC(C)(C)C)CC4)cnn3c2)cc1 Test system: Oligodendrocyte progenitor cells (OPCs) Read-out: GPR17 Fold Induction (Over Vehicle; 3 μM) Value: ?
A: 4.38

Q: Item: Cn1cc(-c2cnc3c(N4CCN(c5ncc(Cc6ccccc6)cn5)CC4)cnn3c2)cn1 Test system: Oligodendrocyte progenitor cells (OPCs) Read-out: GPR17 Fold Induction (Over Vehicle; 3 μM) Value: ?
A: 7.38
